Overview of reported IC50 across a group of compounds:
# assayed.target: human B1 receptor (Homo sapiens)
# Construct: host or cells: CHO-K1
# Sequence (P46663 whole entry): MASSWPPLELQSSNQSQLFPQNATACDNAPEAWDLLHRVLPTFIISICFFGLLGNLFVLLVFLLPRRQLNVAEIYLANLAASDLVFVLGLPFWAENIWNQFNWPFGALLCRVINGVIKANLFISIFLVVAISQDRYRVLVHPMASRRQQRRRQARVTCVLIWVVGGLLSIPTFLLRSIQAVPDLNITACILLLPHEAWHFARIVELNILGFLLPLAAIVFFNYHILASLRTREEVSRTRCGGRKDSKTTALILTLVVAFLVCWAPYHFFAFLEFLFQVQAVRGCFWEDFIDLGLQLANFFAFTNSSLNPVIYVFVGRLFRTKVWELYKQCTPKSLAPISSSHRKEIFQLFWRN
# experiment.notes: Calcium flux assay (FLIPR) with recombinant CHO-K1 cells expressing human B1 receptor
# Type: cell-based
# condition.info: presence of 0.1% BSA in assay buffer, read-out: hB1 IC50
measure: IC50 (nM)

>>> numeric_readout("COc1ccc(-c2ccc(NC(=O)C3CC3c3ccccc3)cc2-c2nnn[nH]2)cc1OC (racemic)")
209
>>> numeric_readout("COc1ccc(-c2cc(F)c(NC(=O)C3CC3c3ccc(Cl)cc3)cc2-c2nnn[nH]2)cc1C (racemic)")
124
>>> numeric_readout("O=C(Nc1ccc(-c2ccc(OC(F)(F)F)cc2)c(-c2nnn[nH]2)c1)C1CC1c1ccc(Cl)cc1 (racemic)")
33
>>> numeric_readout("COc1cncc(-c2cc(C)c(NC(=O)C3CC3c3cccc(C)c3)cc2-c2nnn[nH]2)c1 (racemic)")
336
